# SYSTEM_TESTED: T1, human GIP receptor (human, UniProt P48546 22-466)
# T1 construct: whole, on cells; also called hGIPR; hGIP-R
# T1 sequence (looked up): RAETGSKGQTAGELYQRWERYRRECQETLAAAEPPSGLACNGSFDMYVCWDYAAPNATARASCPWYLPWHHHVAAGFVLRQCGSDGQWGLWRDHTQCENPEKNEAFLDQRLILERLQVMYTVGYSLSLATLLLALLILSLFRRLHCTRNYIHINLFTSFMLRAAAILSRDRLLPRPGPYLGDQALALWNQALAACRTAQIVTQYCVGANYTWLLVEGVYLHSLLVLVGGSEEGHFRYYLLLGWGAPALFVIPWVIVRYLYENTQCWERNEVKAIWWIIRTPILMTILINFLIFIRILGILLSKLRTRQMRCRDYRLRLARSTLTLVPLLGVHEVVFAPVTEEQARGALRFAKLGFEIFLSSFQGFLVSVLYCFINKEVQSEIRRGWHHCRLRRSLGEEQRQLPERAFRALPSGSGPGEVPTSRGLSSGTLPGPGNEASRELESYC
# ASSAY_REMARKS: [125I]-GIP competition SPA, hGIPR membranes
Threshold-based label: Ki under 0.07 nM gives True, Ki not under 0.07 nM gives False.

{"BINDER": "YXEGTFTSDYSIXLDEKAQXAFIEYLIEGGPSSGAPPPS (Aib2; αMeL13; K17((2-[2-(2-Amino-ethoxy)-ethoxy]-acetyl)2-(γ-Glu)-CO-(CH2)16-CO2H); Aib20; C-terminal NH2) [Example 323]", "GROUP": "True"}
{"BINDER": "YXEGTFTSDYSIXLDKKAQXEFIEXLIAGGPSSGAPPPS (Aib2; αMeL13; K17((2-[2-(2-Amino-ethoxy)-ethoxy]-acetyl)2-(γ-Glu)-CO-(CH2)18-CO2H); Aib20; αMeY25; C-terminal NH2) [Example 367]", "GROUP": "True"}
{"BINDER": "YXEGTXTSDYSXLDEKAQXEFIXYLIEGGPSSGAPPPS (Aib2; αMeF(2F)6; αMeL12; K16((2-[2-(2-Amino-ethoxy)-ethoxy]-acetyl)2-(γ-Glu)-CO-(CH2)18-CO2H); Aib19; D-Glu23; C-terminal NH2 (positions counted on this 38-residue peptide)) [Example 229]", "GROUP": "False"}
{"BINDER": "YXEGTXTSDLSIXLDXKAQXTFIXXLIEGGPSSGAPPPS (Aib2; αMeF(2F)6; αMeL13; Orn16; K17((2-[2-(2-Amino-ethoxy)-ethoxy]-acetyl)2-(γ-Glu)-CO-(CH2)16-CO2H); Aib20; D-Glu24; αMeY25; C-terminal NH2) [Example 243]", "GROUP": "True"}
{"BINDER": "FXEGTFTSDYSIXLDKKAQXAFIEYLIEAGPSSGAPPPS (Aib2; αMeL13; K17((2-[2-(2-Amino-ethoxy)-ethoxy]-acetyl)2-(γ-Glu)-CO-(CH2)16-CO2H); Aib20; C-terminal NH2) [Example 328]", "GROUP": "False"}
{"BINDER": "FXEGTFTSDYSIXLDKKAQXAFIEYLIEGGPSSGAPPPS (Aib2; αMeL13; K17((2-[2-(2-Amino-ethoxy)-ethoxy]-acetyl)2-(γ-Glu)-CO-(CH2)18-CO2H); Aib20; C-terminal NH2) [Example 327]", "GROUP": "True"}

Would you kindly verify if Ki of YXEGTXTSDYSIXLDEKAQXEFIXYLIEGG (Aib2; αMeF(2F)6; αMeL13; K17((2-[2-(2-Amino-ethoxy)-ethoxy]-acetyl)2-(γ-Glu)-CO-(CH2)16-CO2H); Aib20; D-Glu24; C-terminal NH2) [Example 220] is strictly less than 0.07 nM?
False

Would you kindly verify if Ki of XXEGTFTSDYSIXLDXKAQXAFVXYLIAGGPSSGAPPPS (not fully specified; D-Tyr1; Aib2; αMeL13; Orn16; K17((2-[2-(2-Amino-ethoxy)-ethoxy]-acetyl)2-(γ-Glu)-CO-(CH2)16-CO2H); Aib20; D-Glu24; C-terminal NH2) [Example 364] is strictly less than 0.07 nM?
False
